This section presents compounds with their documented DBIL values.
# Organism: Rattus norvegicus
# test-name: Open TG-GATES - Regimen: Single
# Assay type: toxicity, organism-based, Sprague-Dawley
# Parameters: regimen Single, gender Male, age 6 weeks
# measurement-conditions: in vivo, po, 0 mg/kg, 9 h, tissue Plasma, route gavage, dose level Control
Write the answer as a number in mg/dL, unit excluded.

A selection of reference data follows.
CC(=O)[C@@]1(O)CC[C@H]2[C@@H]3C=C(Cl)C4=CC(=O)CC[C@]4(C)[C@H]3CC[C@@]21C
0
CC(S)C(=O)NCC(=O)O (stereo not given)
0
CN(C/C=C/C#CC(C)(C)C)Cc1cccc2ccccc12
0.066
CN(CCOc1ccc(CC2SC(=O)NC2=O)cc1)c1ccccn1.O=C(O)/C=C\C(=O)O (stereo not given) [ROSIGLITAZONE MALEATE]
0.01

Note: attention shifts to another entry.
Qu. Endpoint output: DBIL of CN(C)CCCN1c2ccccc2Sc2ccc(Cl)cc21 . Value?
Ans. 0.066

###

This section presents compounds with their documented ALT values.
# Species on record: Rattus norvegicus
# test-name: Open TG-GATES - Regimen: Daily Repeat
# Format: toxicity, organism-based, Sprague-Dawley
# Parameters: regimen Daily Repeat, gender Male, age 6 weeks
# measurement-conditions: in vivo, po, 1000 mg/kg, […], tissue Plasma, route gavage, dose level High, time 14 day
Write the answer as a number in IU/L, unit excluded.

CC(=O)[C@@]1(O)CC[C@H]2[C@@H]3C=C(Cl)C4=CC(=O)CC[C@]4(C)[C@H]3CC[C@@]21C
45.2

Qu. Endpoint output: ALT of O=C(O)c1ccccc1Nc1ccccc1 . Value?
Ans. 38.3

Qu. Endpoint output: ALT of CCCCNC(=O)NS(=O)(=O)c1ccc(C)cc1 [TOLBUTAMIDE] . Value?
Ans. 42.4

Qu. Endpoint output: ALT of CC(S)C(=O)NCC(=O)O (centres undefined) . Value?
Ans. 41.6

###

This section presents molecules with their documented Bas values.
# Species on record: Rattus norvegicus
# test-name: Open TG-GATES - Regimen: Daily Repeat
# Assay type: toxicity, organism-based, Sprague-Dawley
# Set-up: regimen Daily Repeat, gender Male, age 6 weeks
# measurement-conditions: in vivo, po, 300 mg/kg, […], tissue Blood, route gavage, dose level Middle, time 14 day
State the value, then name its unit.

Qu. Endpoint output: Bas of O=C(O)c1ccccc1Nc1ccccc1 . Value?
Ans. 0.8%

Qu. Endpoint output: Bas of CC(=O)[C@@]1(O)CC[C@H]2[C@@H]3C=C(Cl)C4=CC(=O)CC[C@]4(C)[C@H]3CC[C@@]21C . Value?
Ans. 0%

Qu. Endpoint output: Bas of CCCCNC(=O)NS(=O)(=O)c1ccc(C)cc1 [TOLBUTAMIDE] . Value?
Ans. 0.4%

Qu. Endpoint output: Bas of CC(S)C(=O)NCC(=O)O (centres undefined) . Value?
Ans. 0%

###

This section presents molecules with their documented MCH values.
# Organism: Rattus norvegicus
# test-name: Open TG-GATES - Regimen: Daily Repeat
# Type: toxicity, organism-based, Sprague-Dawley
# Parameters: regimen Daily Repeat, gender Male, age 6 weeks
# measurement-conditions: in vivo, po, 1000 mg/kg, […], tissue Blood, route gavage, dose level High, time 7 day
Write the answer as a number in pg, unit excluded.

A selection of reference data follows.
CC(=O)[C@@]1(O)CC[C@H]2[C@@H]3C=C(Cl)C4=CC(=O)CC[C@]4(C)[C@H]3CC[C@@]21C
20.2
CCCCNC(=O)NS(=O)(=O)c1ccc(C)cc1 [TOLBUTAMIDE]
20.5
O=C(O)c1ccccc1Nc1ccccc1
20.5

Note: attention shifts to another entry.
Qu. Endpoint output: MCH of CC(S)C(=O)NCC(=O)O (centres undefined) . Value?
Ans. 21.4

Source: ChEMBL document CHEMBL3885861
